biological target: Acetylcholinesterase (Electrophorus electricus, UniProt O42275); test: Inhibition of recombinant Electric eel AChE incubated for 15 mins by amplex red reagent based fluorescence assay
Sequence (O42275 whole entry): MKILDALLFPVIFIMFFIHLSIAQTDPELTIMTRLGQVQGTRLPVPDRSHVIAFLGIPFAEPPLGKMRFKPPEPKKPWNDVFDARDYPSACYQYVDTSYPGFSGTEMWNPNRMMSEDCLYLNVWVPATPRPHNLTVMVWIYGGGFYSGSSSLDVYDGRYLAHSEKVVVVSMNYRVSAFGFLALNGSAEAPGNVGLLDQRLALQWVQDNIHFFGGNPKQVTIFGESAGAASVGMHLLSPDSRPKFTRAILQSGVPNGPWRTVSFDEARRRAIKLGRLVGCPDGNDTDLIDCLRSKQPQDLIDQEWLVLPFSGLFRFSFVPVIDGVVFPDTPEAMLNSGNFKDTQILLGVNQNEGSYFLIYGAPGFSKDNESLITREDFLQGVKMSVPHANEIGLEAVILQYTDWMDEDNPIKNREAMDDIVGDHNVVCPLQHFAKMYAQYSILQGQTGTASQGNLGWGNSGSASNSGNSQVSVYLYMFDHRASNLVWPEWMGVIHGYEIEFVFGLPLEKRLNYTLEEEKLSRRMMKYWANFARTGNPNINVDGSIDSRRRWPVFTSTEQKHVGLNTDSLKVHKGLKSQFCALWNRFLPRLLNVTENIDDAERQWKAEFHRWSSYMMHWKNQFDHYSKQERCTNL
ASSAY_METRIC: pIC50
Please express pIC50 as -log10 of the molar concentration.

The measured pIC50 associated with `C#CCOc1ccc(-c2cc(-c3ccc(OCCN4CCOCC4)cc3)nc(N)n2)cc1` reads 6.52

---

target: Cholinesterase (Homo sapiens); assay: Inhibition of human serum BChE using butyrylthiocholine iodide as substrate preincubated for 10 mins followed by substrate addition and measured for 10 mins by DTNB reagent based Ellman's method
Sequence (P06276 whole entry): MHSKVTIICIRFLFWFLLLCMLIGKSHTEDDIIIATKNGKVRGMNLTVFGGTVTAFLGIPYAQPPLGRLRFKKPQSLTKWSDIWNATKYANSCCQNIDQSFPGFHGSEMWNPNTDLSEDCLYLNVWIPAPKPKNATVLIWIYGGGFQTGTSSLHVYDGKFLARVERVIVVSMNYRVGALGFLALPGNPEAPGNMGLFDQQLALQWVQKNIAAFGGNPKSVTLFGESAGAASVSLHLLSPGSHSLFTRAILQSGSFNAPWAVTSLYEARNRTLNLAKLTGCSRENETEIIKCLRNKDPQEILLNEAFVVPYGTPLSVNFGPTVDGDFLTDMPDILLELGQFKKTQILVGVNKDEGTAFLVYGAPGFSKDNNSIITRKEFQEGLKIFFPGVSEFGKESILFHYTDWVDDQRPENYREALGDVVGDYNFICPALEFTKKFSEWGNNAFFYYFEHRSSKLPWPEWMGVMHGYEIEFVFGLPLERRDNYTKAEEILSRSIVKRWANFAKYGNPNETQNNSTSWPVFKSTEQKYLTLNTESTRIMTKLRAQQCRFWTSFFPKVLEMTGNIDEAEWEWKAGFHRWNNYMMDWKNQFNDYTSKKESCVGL
ASSAY_METRIC: IC50

# count of solved cases: 8
| CHEMICAL_STRUCTURE | ASSAY_SYSTEM | IC50 |
| --- | --- | --- |
| c1cnc(Nc2nnc(-c3cccc4ccccc34)o2)nc1 | Cholinesterase (Homo sapiens) | 12 µM |
| Oc1ccc(-c2nnc(Nc3ncccn3)o2)cc1 | Cholinesterase (Homo sapiens) | > 50.1 µM |
| COc1ccc(-c2nnc(Nc3ncccn3)o2)cc1 | Cholinesterase (Homo sapiens) | > 50.1 µM |
| Brc1cccc(-c2nnc(Nc3ncccn3)o2)c1 | Cholinesterase (Homo sapiens) | 20.4 µM |
| Oc1ccccc1-c1nnc(Nc2ncccn2)o1 | Cholinesterase (Homo sapiens) | > 50.1 µM |
| COc1cc(-c2nnc(Nc3ncccn3)o2)cc(OC)c1OC | Cholinesterase (Homo sapiens) | > 50.1 µM |
| O=[N+]([O-])c1ccc(-c2nnc(Nc3ncccn3)o2)cc1 | Cholinesterase (Homo sapiens) | > 50.1 µM |
| O=[N+]([O-])c1ccccc1-c1nnc(Nc2ncccn2)o1 | Cholinesterase (Homo sapiens) | > 50.1 µM |

Record `Clc1ccccc1-c1nnc(Nc2ncccn2)o1` / Cholinesterase (Homo sapiens), IC50 recorded as > 50.1 µM

Record `Clc1ccc(-c2nnc(Nc3ncccn3)o2)cc1` / Cholinesterase (Homo sapiens), IC50 recorded as > 50.1 µM

Record `Cc1ccc(-c2nnc(Nc3ncccn3)o2)cc1` / Cholinesterase (Homo sapiens), IC50 recorded as > 50.1 µM

Record `COc1ccc(-c2nnc(Nc3ncccn3)o2)cc1OC` / Cholinesterase (Homo sapiens), IC50 recorded as > 50.1 µM

Record `Fc1ccc(-c2nnc(Nc3ncccn3)o2)cc1` / Cholinesterase (Homo sapiens), IC50 recorded as > 50.1 µM

Record `Brc1ccc(-c2nnc(Nc3ncccn3)o2)cc1` / Cholinesterase (Homo sapiens), IC50 recorded as 22.9 µM

Record `c1ccc(-c2nnc(Nc3ncccn3)o2)cc1` / Cholinesterase (Homo sapiens), IC50 recorded as > 50.1 µM
